Target: hERG (Homo sapiens)
Sequence (Q12809 whole entry): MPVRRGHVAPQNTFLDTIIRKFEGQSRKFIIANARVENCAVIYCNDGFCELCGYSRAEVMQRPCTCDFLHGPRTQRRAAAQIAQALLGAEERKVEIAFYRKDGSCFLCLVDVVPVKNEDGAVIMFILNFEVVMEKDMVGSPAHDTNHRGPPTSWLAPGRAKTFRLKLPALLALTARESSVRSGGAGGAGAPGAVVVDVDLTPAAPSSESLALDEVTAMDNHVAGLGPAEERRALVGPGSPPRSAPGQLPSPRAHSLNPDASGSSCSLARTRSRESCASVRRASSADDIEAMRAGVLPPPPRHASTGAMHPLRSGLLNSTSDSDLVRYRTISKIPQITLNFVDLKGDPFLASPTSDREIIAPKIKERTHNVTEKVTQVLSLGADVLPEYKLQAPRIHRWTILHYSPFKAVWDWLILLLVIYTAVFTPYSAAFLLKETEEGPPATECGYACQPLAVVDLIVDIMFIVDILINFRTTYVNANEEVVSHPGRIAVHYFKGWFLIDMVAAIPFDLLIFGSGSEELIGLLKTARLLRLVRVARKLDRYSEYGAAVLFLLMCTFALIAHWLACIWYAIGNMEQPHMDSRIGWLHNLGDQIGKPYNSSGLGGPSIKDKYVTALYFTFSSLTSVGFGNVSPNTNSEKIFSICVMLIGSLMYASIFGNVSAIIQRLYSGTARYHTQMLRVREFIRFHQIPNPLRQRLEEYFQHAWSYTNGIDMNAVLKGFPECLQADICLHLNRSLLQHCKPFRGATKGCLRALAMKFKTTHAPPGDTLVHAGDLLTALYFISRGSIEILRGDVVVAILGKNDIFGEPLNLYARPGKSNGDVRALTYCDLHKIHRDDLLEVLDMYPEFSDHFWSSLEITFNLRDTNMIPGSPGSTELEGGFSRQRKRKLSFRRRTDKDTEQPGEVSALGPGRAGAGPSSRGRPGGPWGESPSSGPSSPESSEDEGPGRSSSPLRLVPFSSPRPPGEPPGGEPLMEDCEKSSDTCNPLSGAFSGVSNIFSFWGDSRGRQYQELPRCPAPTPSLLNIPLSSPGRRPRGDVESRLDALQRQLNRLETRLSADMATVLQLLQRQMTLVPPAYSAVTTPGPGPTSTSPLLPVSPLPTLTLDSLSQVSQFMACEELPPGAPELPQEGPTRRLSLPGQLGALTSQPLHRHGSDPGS
Experiment: hERG: inhibition of binding of [3H]astemizole to HEK-293 cells expressing human recombinant hERG
Details: read-out: hERG IC50 (μM) (extrapolated from 10 μM inh'n); extrapolated assuming binding slope 1.0
measured property: IC50 (µM)
Answers are plain numbers, in µM.

# compound, uom, IC50
records = [
    ("COc1ccc2cc(C(C)c3nnc(N)nc3N)ccc2c1 (centres unmarked)", "µM", 34),
]

Query string: # value lookup — system hERG (Homo sapiens), readout IC50, item CS(=O)(=O)O.Cn1nc(C23CC4CC(CC(C4)C2)C3)c(N)nc1=N
Result string: 23

----------
Task for the reader: assign each of the following compounds its reported Microsome stability % metabolized (40 min incubation 37°).
Assay: Rat microsome stability
Format: in vitro ADME
Conditions: 1 μM, rat liver microsomes
Numbers only, in %.

# compound, uom, result value
rows = [
    ("N=c1nc(N)c(-c2ccccc2Oc2ccccc2)nn1CC(F)(F)F [CEN-98]", "%", 6.0),
]

Report Microsome stability % metabolized (40 min incubation 37°) for each item below.
1. Nc1nnc(-c2cccc(Oc3ccccc3)c2)c(N)n1 [CEN-84]
2. Nc1nnc(-c2ccc3ccccc3c2)c(N)n1 [CEN-73]
3. Nc1nnc(-c2cccc(Cl)c2Cl)c(N)n1 [CEN-1, Lamotrigine, reference compound]
4. CCOc1ccc2ccccc2c1-c1nnc(N)nc1N [CEN-110]

Result string:
[33.0, 62.5, 0.5, 61.5]
